# test.method.notes: Components of the Cytosolic LPS Sensing Pathway: Gene Identification via Genome-wide siRNA Screen;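 further: robust z of the log signal after scaling to non-targeting control siRNA wells of the plate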
# experimental.parameters: RAW264.7 macrophages, IL-1a HTRF, actives lie on both sides, screened at 100 nM (by protocol), cells primed 5 h with Pam3CSK4 first
Screen size: about 53,000 sequences; about 3,700 (7%) were called active. Many of the other results were omitted from the sample, so actives are more common in it than they were.
sequences and their reported z-score
# output: bare number, no unit

Consider the reported z-score for these sequences:
GGGAUAACCAGUGAAUUUATT against Pcdhb15 | 2.23
GGAAUAGGAGCAAGUGUACTT against 9930021J03Rik | 1.03
GUUUUAGGCAACCUUGGGUTT against Olfr1038-ps | -0.14
GGGCAACGUAUUCACAUUATT against Manbal | 2.86
GGGAUUCUUUUUGUGGAAATT against Trim62 | 0.636

Bench note: what z-score did GCAUAUGCUUUUACAACACTT against Zfp280c show? 0.252

Bench note: what z-score did GGUUAGCCUACUCUCUAAUTT against Tomm22 show? 0.501

Bench note: what z-score did GGCCUCUUCACUUAUGUAUTT against Inha show? -0.22

Bench note: what z-score did GGUCGACAUUUUGAAGGAGTT against Fthl17e show? -2.63

Bench note: what z-score did GGACCUUCCAGCAAGAUUUTT against Rnf13 show? 0.28

Bench note: what z-score did CCAAAUCCGGGAAAAAGAGTT against Armcx5 show? -0.459

Bench note: what z-score did GGGAGAAGUGCUGUGGAUUTT against Fras1 show? 0.401

Bench note: what z-score did GGAUAUCACUUGCUAUUCCTT against Abraxas2 show? -0.406

Bench note: what z-score did CCACUAUCCCACCAAUCACTT against Lypd8 show? -1.03

Bench note: what z-score did GGGAAAAAUGGUCAGAUUATT against Colgalt2 show? -1.08

Bench note: what z-score did GCCGCUAUCGUCUUUAUCATT against Ptk7 show? 0.00632

Bench note: what z-score did GGCCAAAAGGUUGAGCAGUTT against Nsun2 show? 0.311

Bench note: what z-score did GGUCAGGUAGGGAUAUACATT against Dele1 show? -1.59

Bench note: what z-score did CCUUCAAUCUUUCUUUCUGTT against Olfr1465 show? -0.635

Bench note: what z-score did GGAACACAAAGGUAAGAAATT against Raf1 show? 0.0798

Bench note: what z-score did GGAUCUGUUACUCUGAUACTT against Pias4 show? 0.847

Bench note: what z-score did GGAAGAGUGCGUUUACCUUTT against Rrp12 show? 0.388
